Biological target: GRIP2_3, Q9C0E4
Sequence (Q9C0E4 238-339): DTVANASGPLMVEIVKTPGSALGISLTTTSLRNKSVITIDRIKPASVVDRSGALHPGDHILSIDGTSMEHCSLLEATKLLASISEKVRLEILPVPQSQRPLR
Experiment: holdup assay
Design: key: below the threshold = too weak to quantify, mostly under pKd 3.1 to 4
Settings: plain residues with an end cap or a label only (N-terminal biotin on a linker: ado-ado)
Parameter: pKd

As a guide, the following entries are already answered.
binder="LSEFKAMDSI [CTNNA1, P35221]" parameter=pKd observed_value="below the threshold"
binder="IPLDGETEEL [MYOZ1, Q9NP98]" parameter=pKd observed_value="below the threshold"
binder="MLSKQSESAI [FLVCR1, Q9Y5Y0]" parameter=pKd observed_value="below the threshold"
binder="SAKVRTVTSV [RASL11B, Q9BPW5]" parameter=pKd observed_value="below the threshold"

What does the data say about its pKd? Entry: DDEDRLVIEI [ZNF831, Q5JPB2]
below the threshold

What does the data say about its pKd? Entry: QPCFNKLFPL [LPXN, O60711]
below the threshold

What does the data say about its pKd? Entry: PLSPEQPTKL [TRIM50, Q86XT4]
below the threshold
